tested_on: OsWOX13 (Oryza sativa, UniProt Q5QMM3 1-267)
Sequence: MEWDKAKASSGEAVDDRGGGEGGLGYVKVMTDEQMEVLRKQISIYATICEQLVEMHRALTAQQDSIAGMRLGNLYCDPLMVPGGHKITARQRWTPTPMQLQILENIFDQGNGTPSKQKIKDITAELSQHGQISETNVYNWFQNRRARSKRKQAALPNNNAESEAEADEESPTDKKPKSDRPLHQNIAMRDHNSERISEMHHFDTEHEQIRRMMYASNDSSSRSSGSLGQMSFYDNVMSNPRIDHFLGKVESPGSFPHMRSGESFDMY
procedure_details: protein-binding microarray (RPBM); PBS, 2% BSA, 51.3 ng/ul salmon testes DNA, 50 uM zinc acetate, 200 nM TF, 25 C, 1 h; high values mean tight binding
cond: protein: recombinant; tags: N-terminal polyhistidine and DsRed monomer fusion (pET32a); label: CyDye5-dUTP incorporated in the synthesized complementary strand; 3' TTTTT single-stranded linker to array surface; dsDNA, one strand shown
In all, about 35,000 sequences were measured (“fluorescence intensity (a.u.)”: median about 10,000, highest 2% from about 52,000 on). This excerpt belongs to a sample that is enriched for the highest values.
Recorded binding signal for the following sequences

| chain_sequence | tested_on | binding signal |
| --- | --- | --- |
| AGTGATAAATTTGAGTGATTACTATATGACACCGTTGTGTCGGAGTCACCTAGTGCAG | OsWOX13 (Oryza sativa, UniProt Q5QMM3 1-267) | 55700 fluorescence intensity (a.u.) |
| AAAGGGATGAGATTGAAGCAATTCCCGTGACTAGAAAACGCGGAGTCACCTAGTGCAG | OsWOX13 (Oryza sativa, UniProt Q5QMM3 1-267) | 3320 fluorescence intensity (a.u.) |
| TTTTAAATTTAAAATAATTAAAACTCAATTAATAATTTGTCGGAGTCACCTAGTGCAG | OsWOX13 (Oryza sativa, UniProt Q5QMM3 1-267) | 31300 fluorescence intensity (a.u.) |
| AGTAATTTTGGTACAATTAATAAATAAATCTGATACCTCACGGAGTCACCTAGTGCAG | OsWOX13 (Oryza sativa, UniProt Q5QMM3 1-267) | 21200 fluorescence intensity (a.u.) |

Prompt line: Return reported binding signal; argument: ATGTTCCTATCAGTTGCTAATTATTAGTGTGACATCAATCCGGAGTCACCTAGTGCAG
Response line: 16300 fluorescence intensity (a.u.)

Prompt line: Now the sequence ATTATTATAAATTATTTCCTCCGTTTCACAATGTAAGTCACGGAGTCACCTAGTGCAG
Response line: 5530 fluorescence intensity (a.u.)
